Target: T1, human CD30, native, expressed on cells (human)
T1 construct: also called native CD30; CD30 on L540, L428, A431/CD30, Karpas299, SUDHL-1 and other CD30-positive cells
T1 chain: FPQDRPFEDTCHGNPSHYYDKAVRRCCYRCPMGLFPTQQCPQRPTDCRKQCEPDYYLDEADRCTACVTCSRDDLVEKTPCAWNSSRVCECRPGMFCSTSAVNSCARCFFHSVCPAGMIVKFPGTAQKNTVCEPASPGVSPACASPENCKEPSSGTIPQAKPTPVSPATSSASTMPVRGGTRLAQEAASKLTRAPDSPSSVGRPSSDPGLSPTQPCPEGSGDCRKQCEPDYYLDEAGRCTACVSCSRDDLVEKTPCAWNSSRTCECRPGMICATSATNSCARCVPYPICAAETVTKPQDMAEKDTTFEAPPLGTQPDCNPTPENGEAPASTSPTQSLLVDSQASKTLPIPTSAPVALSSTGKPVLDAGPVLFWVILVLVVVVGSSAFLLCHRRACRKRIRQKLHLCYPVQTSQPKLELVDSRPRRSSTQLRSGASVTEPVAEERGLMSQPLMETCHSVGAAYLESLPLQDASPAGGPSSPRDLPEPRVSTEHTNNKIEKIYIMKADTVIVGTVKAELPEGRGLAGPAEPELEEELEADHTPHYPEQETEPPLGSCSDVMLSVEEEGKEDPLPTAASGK
Assay: competitive FACS on L540 cells, unlabeled MAb 2.5 µg/ml; competitor: biotin-HeFi-I
Task for the reader: assign each of the following binders its reported inhibition of the binding of biotin-MAb (%).
Answers are plain numbers, in %.

binder="T25 MAb (antibody, V domains shown) VH: QVTLKESGPGILQPSQTLSLTCSFSGFSLNTSGVGVGWIRQPSGKGLEWLAHIWWDDDERYNPVLKSRLTISKDTSSNQVFLKIANVDTADSATYYCVRSMVAWFPYWGRGTLVTVSA VL: DIVMSQSPSSLAVSVGEKFTVNCKSSQSLLYSSNQKNFLAWYQQKPGQSPKLLIYWASTRESGVPDRFIGSGSGTDFTLTISSVKAEDLAVYYCQQHYRYPWTFGGGTKLEIKR" endpoint_value=0
binder="T24 MAb (antibody, V domains shown) VH: QVQLQQPGAELVRPGASVKLSCKASGYSFTSYWIDWVKQRPGQGLEWIGNIYPSNAYTNYNQKFKDKATLTVDKSSSTAYMQLSSPTSEDSAVYYCTSVLDYFYAMDYWGQGTSVTVSS VL: DIQMTQTTSSLSASLGDRVTISCRASQDISNYLNWYQQKPDGTVKLLIYYTSRLHSGVPSRFSGSGSGTDYSLTISNLEQEDIATYFCQQVNTLPRTFGGGTKLEIKR" endpoint_value=79.8

Now consider the entry below.
Exercise: What value of inhibition of the binding of biotin-MAb (%) has been recorded for this entry: T6 MAb (antibody, V domains shown) VH: QVQLKESGPGLVTPSQSLSITCTVSGFSLSKYSIHWVRQPPGRGLEWLGMIWGVENTDYNSALKSRLSISKDNSKSQVFLKMNSLQSDDTAMYYCARKDLGLYGMNYWGQGISVTVSA VL: DIVMTQSQKFMSTSVGDRVSVTCKASQNVGTNVAWYQQKPGQSPKALFYSASYRYSGVPDRFIGSGSGTVFTLTISNVQSEDLAEYFCQQYNTYPLTFGSGTKLEIER
Key: 0
